Recorded measurements of GI50, one per entry
test system: SR; assay: NCI tumour cell line growth inhibition, 48 h
Calls of active or inactive are those of the source. Rule as the data show it: active = GI50 up to about 1.1 µM and inactive = higher.

MOLECULE	GI50
C[C@@H]1CC[C@@]2(C)C(C(=O)O)=CCCC2[C@@]1(C)CC(=O)c1ccoc1 (stereo not given in full)	> 25 µM (inactive)
COC(=NC(C)C)NC(C)C	77.3 µM (inactive)
Cn1ccnc1Sc1ccc(/C=N/NC(=O)c2ccccc2[N+](=O)[O-])cc1[N+](=O)[O-]	36.1 µM (inactive)
O=C(c1ccc(Cl)cc1)N(C(=S)N1CCN(c2ccccn2)CC1)c1ccccc1	39.3 µM (inactive)
CC[C@]12C=CCN3CC[C@@]4(c5cc(Br)c(OC)c([N+](=O)[O-])c5N(C)[C@H]4[C@@](O)(C(=O)OC)[C@@H]1OC(C)=O)[C@@H]32	25.7 µM (inactive)

---

Each entry below lists one item and its recorded GI50 value.
system: OVCAR-5; experiment: NCI tumour cell line growth inhibition, 48 h
Activity calls are given as the source filed them. No stated cut-off is given here; in the data, active = GI50 up to about 1.1 µM and inactive = higher.

COMPOUND	GI50
CC[C@]12C=CCN3CC[C@@]4(c5cc(Br)c(OC)c([N+](=O)[O-])c5N(C)[C@H]4[C@@](O)(C(=O)OC)[C@@H]1OC(C)=O)[C@@H]32	> 100 µM (inactive)
COC(=O)[C@@]12OC[C@]34C([C@@H](O)C1O)[C@@]1(C)CC(=O)C(OC(=O)CC(C)C(F)(F)F)=C(C)C1C[C@H]3OC(=O)[C@H](O)[C@H]42 (some centres undefined)	19.6 µM (inactive)
COc1cc(C=C2C(=O)OC(C)(C)OC2=O)cc(OC)c1OC	> 100 µM (inactive)
N#C/C(=C1/Sc2c(nc[nH]c2=O)N1c1ccccc1)c1nc2ccccc2[nH]1	> 100 µM (inactive)
C=CC(Br)(CBr)CCC1OC1(C)C (centres undefined)	18.9 µM (inactive)
CN(C)CCCNc1c(C#N)[n+]([O-])c2cc(Cl)ccc2[n+]1[O-]	> 61.7 µM (inactive)
O/N=C(/CC(O)(C(F)(F)F)C(F)(F)F)c1ccccc1	> 10 µM (inactive)
COc1cc(OCc2nc3ccccc3n3cccc23)cc(OC)c1OC	> 52 µM (inactive)
CCc1cccc(C)c1NC(C)=O	> 100 µM (inactive)

---

test system: CAKI-1; experiment: NCI tumour cell line growth inhibition, 48 h
Active and inactive are the calls of the source. No stated cut-off is given here; in the data, active = GI50 up to about 1.1 µM and inactive = higher.

COMPOUND	TARGET DESC	GI50
CCOC1=C2N=C(C(CC)c3ccccc3F)N=C2C(=O)c2ccccc21 (stereo unspecified)	CAKI-1	> 100 µM (inactive)
COc1ccc(/C(C)=N/NC(=O)c2ccncc2)c(OC)c1	CAKI-1	> 10 µM (inactive)
N=C1OC(c2ccc3c(c2)OCO3)C(NNS(=O)(=O)c2ccccc2)=C1O (stereo unspecified)	CAKI-1	> 100 µM (inactive)
C=CC(Br)(CBr)CCC1OC1(C)C (stereo unspecified)	CAKI-1	19.5 µM (inactive)
O=C1[C@H](O)[C@@H]2C(O)O[C@H]3[C@@H]2N1C[C@H]3[Si](c1ccccc1)(c1ccccc1)c1ccccc1 (stereo partly specified)	CAKI-1	> 100 µM (inactive)
CCOC(=O)C1=C(N2CCCC2)C(=O)C(C(=O)OCC)C1 (stereo unspecified)	CAKI-1	> 100 µM (inactive)

// provenance: ChEMBL document CHEMBL1201862
